System: Escherichia coli TOP10;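 note: peptides expressed intracellularly from a pBAD plasmid library in pooled LB shake-flask culture, induced with 0.3% L-arabinose, DNA abundance read by NGS, three biological replicates, DESeq2 with apeglm shrinkage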
Test: shrunken log2 fold change of peptide-encoding DNA abundance (4.5 h post-induction vs induction); higher = less antimicrobial activity (less host growth inhibition)
Conditions: time post-induction: 4.5 h; library: site-saturation at positions 5, 18, 19, 20
quantity measured: shrunken log2 fold change

RRIRCRPPRLPRPRPRPVKDPRP :: -0.305
RRIRCRPPRLPRPRPRPLCHPRP :: -0.213
RRIRDRPPRLPRPRPRPKPIPRP :: 0.106
RRIRFRPPRLPRPRPRPSWDPRP :: -0.152
RRIRHRPPRLPRPRPRPMQFPRP :: 0.00869
RRIRNRPPRLPRPRPRPLSWPRP :: 0.235
RRIRARPPRLPRPRPRPYAIPRP :: 2.12
RRIRGRPPRLPRPRPRPERAPRP :: 1.4
RRIRTRPPRLPRPRPRPMQMPRP :: 0.39
RRIRWRPPRLPRPRPRPQKHPRP :: -0.15
RRIRTRPPRLPRPRPRPHNFPRP :: -0.0359
RRIRHRPPRLPRPRPRPIIDPRP :: -0.0219
RRIRERPPRLPRPRPRPDFAPRP :: 0.159
RRIRVRPPRLPRPRPRPSNNPRP :: -0.662
RRIRYRPPRLPRPRPRPDYHPRP :: -0.0195

All figures here come from the supplement of paper PMC9112550.
